Target: T1, P3mS
T1 chain: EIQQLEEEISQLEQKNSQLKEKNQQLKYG
Assay: two-hybrid library CC1;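 further: natural log of median RNA to DNA barcode read ratio; higher means stronger binding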
Settings: mean of both orientations
quantity.measured: interaction score
One number for each entry.

Reference set (3 entries):
| binder | quantity.measured | reported.value |
| --- | --- | --- |
| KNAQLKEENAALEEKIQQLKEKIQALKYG [P10] | interaction score | -2.74 |
| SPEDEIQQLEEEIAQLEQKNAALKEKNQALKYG [P3] | interaction score | -2.89 |
| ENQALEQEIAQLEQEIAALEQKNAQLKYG [P11] | interaction score | -2.8 |

Please fill in: interaction score reported for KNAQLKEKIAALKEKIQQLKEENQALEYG [P12] = -0.884

Data credit: paper PMC10397247
